tested_target: ~100 representative kinases (Homo sapiens)
Construct: Recombinant protein kinase domains with a concentration of 2 μM
measurement_notes: DSF 100 kinase selectivity screen;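 further: compound tested at 20 µM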
Assay type: binding
experimental_setup: Protein SLK; DSF; average of three replicates
reported_property: dTm (K)

Here is how some compounds turned out for dTm.
{"columns": ["smi", "dTm [K]"],
 "data": [
  ["O=C(Nc1cccc(-c2c[nH]c3ncnc(N4CCOCC4)c23)c1)C1(C(=O)Nc2ccc(F)c(Cl)c2)CC1", 8.41],
  ["CCc1ccc(NC(=O)C2(C(=O)Nc3cccc(-c4c[nH]c5ncnc(N6CCOCC6)c45)c3)CC2)cc1", 5.04],
  ["Cc1cc(NC(=O)C2(C(=O)Nc3cccc(-c4c[nH]c5ncnc(N6CCOCC6)c45)c3)CC2)ccc1F", 8.94],
  ["Cn1cc(-c2c[nH]c3ncnc(N4CCOCC4)c23)cc1C#N", 3.08],
  ["CC(C)(C)c1cc(NC(=O)Nc2cccc(-c3c[nH]c4ncnc(N5CCOCC5)c34)c2)n(-c2ccc3ncccc3c2)n1", 13.85]
]}

P = CC(C)(C)c1cccc(NC(=O)C2(C(=O)Nc3cccc(-c4c[nH]c5ncnc(N6CCOCC6)c45)c3)CC2)c1
Q = Cc1cc(F)ccc1NC(=O)C1(C(=O)Nc2cccc(-c3c[nH]c4ncnc(N5CCOCC5)c34)c2)CC1
Incoming: # min-compare on dTm between P and Q When you have decided, please share the label of that item.
Outgoing: Q

###

tested_target: ~100 representative kinases (Homo sapiens)
Construct: Recombinant protein kinase domains with a concentration of 2 μM
measurement_notes: DSF 100 kinase selectivity screen;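 further: compound tested at 20 µM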
Format: binding
experimental_setup: Protein SRPK1; DSF; average of three replicates
reported_property: dTm (K)

{"columns": ["compound", "units_of_measure", "dTm"],
 "data": [
  ["COc1cc(NC(=O)C2(C(=O)Nc3cccc(-c4c[nH]c5ncnc(N6CCOCC6)c45)c3)CC2)ccc1F [Compound 21]", "K", 11.40],
  ["CC(C)(C)c1cc(NC(=O)Nc2cccc(-c3c[nH]c4ncnc(N5CCOCC5)c34)c2)n(-c2ccc3ncccc3c2)n1 [Compound 28]", "K", 16.05],
  ["CN[C@@H]1C[C@H]2O[C@@](C)([C@@H]1OC)n1c3ccccc3c3c4c(c5c6ccccc6n2c5c31)C(=O)NC4 [Staurosporine]", "K", 7.17],
  ["CC(C)(C)c1cccc(NC(=O)C2(C(=O)Nc3cccc(-c4c[nH]c5ncnc(N6CCOCC6)c45)c3)CC2)c1 [Compound 22]", "K", 9.79],
  ["O=C(Nc1cccc(-c2c[nH]c3ncnc(N4CCOCC4)c23)c1)C1(C(=O)Nc2cccc3c2CCC3)CC1 [Compound 11]", "K", 6.49]
]}

A = Cc1ccc(NC(=O)C2(C(=O)Nc3cccc(-c4c[nH]c5ncnc(N6CCOCC6)c45)c3)CC2)cc1 [Compound 14]
B = Cc1cc(NC(=O)C2(C(=O)Nc3cccc(-c4c[nH]c5ncnc(N6CCOCC6)c45)c3)CC2)ccc1F [Compound 20]
Incoming: Of the pair A and B , name the member with the lesser recorded dTm. Output the label that corresponds to your choice.
Outgoing: A
(A: 7.30 K, B: 13.77 K)

P = O=C(Nc1cccc(-c2c[nH]c3ncnc(N4CCOCC4)c23)c1)C1(C(=O)Nc2ccc(F)c(Br)c2)CC1 [Compound 19]
Q = Cc1ccc(-n2nc(C(C)(C)C)cc2NC(=O)Nc2cccc(-c3c[nH]c4nc(Cl)nc(N5CCOCC5)c34)c2)cc1 [Compound 30]
Incoming: Could you point out whether the larger dTm belongs to P or to Q ? Please respond with the label that marks your chosen entry.
Outgoing: P
(P: 7.58 K, Q: 4.87 K)

###

tested_target: ~100 representative kinases (Homo sapiens)
Construct: Recombinant protein kinase domains with a concentration of 2 μM
measurement_notes: DSF 100 kinase selectivity screen;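 further: compound tested at 20 µM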
Format: binding
experimental_setup: protein MAPKAPK2; average of three replicates
reported_property: dTm (K)

Answered examples (10):
{"columns": ["compound", "numeric_readout"],
 "data": [
  ["Cc1cc(F)ccc1NC(=O)C1(C(=O)Nc2cccc(-c3c[nH]c4ncnc(N5CCOCC5)c34)c2)CC1", -0.55],
  ["CCNc1nc(Nc2cc(F)c(C(=O)N3CCOCC3)cc2OC)ncc1C(F)(F)F", -0.23],
  ["Cc1cc(NC(=O)C2(C(=O)Nc3ccc(F)cc3)CC2)cc(-c2c[nH]c3ncnc(N4CCOCC4)c23)c1", 0.62],
  ["Cc1ccc(NC(=O)C2(C(=O)Nc3cccc(-c4c[nH]c5ncnc(N6CCOCC6)c45)c3)CC2)cc1", -0.14],
  ["COc1ccc(NC(=O)C2(C(=O)Nc3cccc(-c4c[nH]c5ncnc(N6CCOCC6)c45)c3)CC2)cc1", -0.05],
  ["COc1cc(S(C)(=O)=O)ccc1Nc1nc(N(C)C)c2c(Cl)c[nH]c2n1", 0.98],
  ["O=C(Nc1cccc(-c2c[nH]c3ncnc(N4CCOCC4)c23)c1)C1(C(=O)Nc2ccc(F)cc2F)CC1", -0.35],
  ["Cn1cc(-c2c[nH]c3ncnc(N4CCOCC4)c23)cc1C#N", 0.0427],
  ["O=C(Nc1cccc(-c2c[nH]c3ncnc(N4CCOCC4)c23)c1)C1(C(=O)Nc2ccc(F)c(Br)c2)CC1", -0.94],
  ["CC(C)(C)c1cc(NC(=O)Nc2cccc(-c3c[nH]c4ncnc(N5CCOCC5)c34)c2)n(-c2ccc3ncccc3c2)n1", 0.51]
]}

a = O=C(Nc1cccc(-c2c[nH]c3ncnc(N4CCOCC4)c23)c1)C1(C(=O)Nc2ccc(F)c(Cl)c2)CC1
b = O=C(Nc1cccc(-c2c[nH]c3ncnc(N4CCOCC4)c23)c1)c1cccn(-c2ccc(F)cc2)c1=O
c = O=C(Nc1cccc(-c2c[nH]c3ncnc(N4CCOCC4)c23)c1)C1(C(=O)Nc2ccc(F)c(Br)c2F)CC1
d = O=C(Nc1cccc(-c2c[nH]c3ncnc(N4CCOCC4)c23)c1)C1(C(=O)Nc2ccc(F)c(F)c2)CC1
Incoming: Rank entries according to their dTm, from the largest number down. Provide the ranking by listing each label in its place in the requested order.
Outgoing: a, d, b, c
(a: 0.22 K, d: -0.12 K, b: -0.41 K, c: -1.06 K)

###

tested_target: ~100 representative kinases (Homo sapiens)
Construct: Recombinant protein kinase domains with a concentration of 2 μM
measurement_notes: DSF 100 kinase selectivity screen;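 further: compound tested at 20 µM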
Format: binding
experimental_setup: protein GAK; average of three replicates
reported_property: dTm (K)

Worked examples, 3 compounds total:
{"columns": ["compound", "dTm [K]"],
 "data": [
  ["COc1cc2c(Oc3ccc(NC(=O)C4(C(=O)Nc5ccc(F)cc5)CC4)cc3F)ccnc2cc1OCCCN1CCOCC1 [Foretinib, reference compound]", 2.91],
  ["Cn1cc(-c2c[nH]c3ncnc(N4CCOCC4)c23)cc1C#N [PFE-360]", -0.50],
  ["Cc1ccc(C(=O)Nc2ccc(CN3CCN(C)CC3)c(C(F)(F)F)c2)cc1C#Cc1cnc2[nH]ncc2c1 [GZD-824, reference compound]", 11.23]
]}

a = Cc1ccc(NC(=O)C2(C(=O)Nc3cccc(-c4c[nH]c5ncnc(N6CCOCC6)c45)c3)CC2)cc1 [Compound 14]
b = O=C(Nc1cccc(-c2c[nH]c3ncnc(N4CCOCC4)c23)c1)C1(C(=O)Nc2ccc(F)c(Cl)c2)CC1 [Compound 18]
c = CCc1ccc(NC(=O)C2(C(=O)Nc3cccc(-c4c[nH]c5ncnc(N6CCOCC6)c45)c3)CC2)cc1 [Compound 15]
d = O=C(Nc1ccc(F)cc1)C1(C(=O)Nc2cccc(-c3c[nH]c4ncnc(N5CCOCC5)c34)c2)CC1 [Compound 2]
Incoming: Number of compounds to sort: 4. Sort criterion: dTm, ascending. Lab note: final answer is the ordered label list.
Outgoing: c, d, a, b
(c: 0.09 K, d: 0.23 K, a: 0.81 K, b: 1.28 K)

a = Cc1cc(F)ccc1NC(=O)C1(C(=O)Nc2cccc(-c3c[nH]c4ncnc(N5CCOCC5)c34)c2)CC1 [Compound 24]
b = COc1cc(NC(=O)C2(C(=O)Nc3cccc(-c4c[nH]c5ncnc(N6CCOCC6)c45)c3)CC2)ccc1F [Compound 21]
c = CC(=O)N1CCN(c2nc(Cl)nc3[nH]cc(-c4cccc(NC(=O)Nc5cc(C(C)(C)C)nn5-c5ccc(C)cc5)c4)c23)CC1 [Compound 31]
d = O=C(Nc1cc(F)cc(Br)c1)C1(C(=O)Nc2cccc(-c3c[nH]c4ncnc(N5CCOCC5)c34)c2)CC1 [Compound 27]
Incoming: Task field, ranking: reported dTm, descending order. State the ranking by listing the labels in the requested order.
Outgoing: c, a, b, d
(c: 3.32 K, a: 0.84 K, b: 0.54 K, d: -0.90 K)

a = O=C(Nc1cccc(-c2c[nH]c3ncnc(N4CCOCC4)c23)c1)C1(C(=O)Nc2ccc(F)c(Br)c2F)CC1 [Compound 26]
b = COc1cc(S(C)(=O)=O)ccc1Nc1nc(N(C)C)c2c(Cl)c[nH]c2n1 [Compound 37]
Incoming: Hey, which is lower on measured dTm, a or b ? Lab note: record the label of whichever item you select.
Outgoing: a
